system: M-07e cells; assay: SCF-dependent M-07e cell proliferation assay; format: cell-based, human; details: Homo sapiens, M-07e, 72 h, SCF-dependent M-07e cell proliferation, 3 days, CellTiter Glo; read-out: M-07e IC50
pIC50: −log10 of the molar value. Counter-ions that a name gives are not always drawn.

{"molecule": "CN(c1ccc(CNC(=O)c2ccc3c(c2)[nH]c(=O)n3C)cn1)[C@H]1CC[C@@H](F)C1", "pIC50": 7.26}
{"molecule": "CN(c1ccc(CNC(=O)c2cc3[nH]c(=O)n(C)c3cc2F)cn1)C1CCC(F)(F)CC1", "pIC50": 7.15}
{"molecule": "Cn1c(=O)[nH]c2cc(C(=O)NCc3ccc(Oc4ccc(F)cc4F)nc3)ccc21", "pIC50": 6.42}
{"molecule": "Cn1c(=O)[nH]c2cc(C(=O)NCc3ccc(Oc4ccccc4F)nc3)c(F)cc21 [Compound 3, trifluoroacetate]", "pIC50": 6.74}

---

biological target: recombinant human KIT tyrosine kinase protein (Homo sapiens (Human)); experiment: KIT tyrosine kinase assay (ADP-Glo); assay type: biochemical; conditions: Table 98
Friendly reminder: IC50 below 100 nM is 1.0, at or above is 0.0.

{"compound": "CCn1c(=O)[nH]c2cc(C(=O)NCc3ccc(Oc4ccc(F)cc4)nc3)ccc21 [Example 35]", "assigned.label": 1.0}
{"compound": "Cn1c(=O)[nH]c2cc(C(=O)NCc3ccc(OC4CCC(F)(F)CC4)nc3)ccc21 [Example 47]", "assigned.label": 1.0}
{"compound": "Cn1c(=O)[nH]c2cc(C(=O)NCc3ccc(Nc4ccc(F)cc4)nc3)ccc21 [Example 57]", "assigned.label": 0.0}
{"compound": "CC(NC(=O)c1ccc2c(c1)[nH]c(=O)n2C)c1ccc(Oc2cccc(F)c2F)nc1 (centres unmarked) [Example 53]", "assigned.label": 1.0}
{"compound": "CC(c1ccccc1)N(C)c1ccc(CNC(=O)c2ccc3c(c2)[nH]c(=O)n3C)cn1 (single isomer, unassigned) [82 Peak 2]", "assigned.label": 1.0}
{"compound": "C[C@@H]1CCCN1c1ccc(CNC(=O)c2ccc3c(c2)[nH]c(=O)n3C)cn1 [Example 99]", "assigned.label": 1.0}
{"compound": "CN(Cc1ccncn1)c1ccc(CNC(=O)c2ccc3c(c2)[nH]c(=O)n3C)cn1 [Example 81]", "assigned.label": 0.0}
{"compound": "CN(c1ccc(CNC(=O)c2ccc3c(c2)[nH]c(=O)n3C)cn1)C1CCOCC1 [Example 60]", "assigned.label": 0.0}

---

biological target: recombinant human KIT tyrosine kinase protein (Homo sapiens (Human), UniProt P10721); assay: KIT tyrosine kinase assay (ADP-Glo); assay type: biochemical; conditions: Table 98
Sequence (P10721 546-976): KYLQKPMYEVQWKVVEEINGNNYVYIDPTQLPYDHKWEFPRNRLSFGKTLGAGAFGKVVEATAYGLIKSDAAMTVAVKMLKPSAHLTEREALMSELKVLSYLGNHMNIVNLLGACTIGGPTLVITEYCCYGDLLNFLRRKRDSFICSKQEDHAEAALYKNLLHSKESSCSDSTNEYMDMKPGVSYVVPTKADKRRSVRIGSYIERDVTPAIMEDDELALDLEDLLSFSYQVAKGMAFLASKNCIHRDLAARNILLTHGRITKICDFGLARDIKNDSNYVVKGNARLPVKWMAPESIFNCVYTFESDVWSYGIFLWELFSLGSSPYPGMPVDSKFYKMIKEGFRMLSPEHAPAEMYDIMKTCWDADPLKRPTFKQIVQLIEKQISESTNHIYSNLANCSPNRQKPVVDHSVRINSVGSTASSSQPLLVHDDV
pIC50: −log10 of the molar value.
quantity.kind: pIC50

{"molecule": "CN(CC1CCCCO1)c1ccc(CNC(=O)c2ccc3c(c2)[nH]c(=O)n3C)cn1 (centres unmarked)", "endpoint.value": 7.22}
{"molecule": "Cn1c(=O)[nH]c2cc(C(=O)NCc3cnc4c(ccn4-c4ccccc4F)c3)ccc21", "endpoint.value": 7.28}
{"molecule": "C[C@H](NC(=O)c1ccc2c(c1)[nH]c(=O)n2C)c1ccc(Oc2ccc(F)c(F)c2)nc1", "endpoint.value": 7.40}
{"molecule": "CN(c1ncc(CNC(=O)c2ccc3c(c2)[nH]c(=O)n3C)s1)C1CCC(F)(F)CC1", "endpoint.value": 7.32}
{"molecule": "CN(c1ccc(CNC(=O)c2ccc3c(c2)[nH]c(=O)n3C)cn1)C1CC(C)(C)C1", "endpoint.value": 7.54}
{"molecule": "Cn1c(=O)[nH]c2cc(C(=O)NCc3ccc(N(C)[C@H]4C[C@H](C(F)(F)F)C4)nc3)ccc21", "endpoint.value": 7.17}
{"molecule": "Cn1c(=O)[nH]c2cc(C(=O)NCc3cnc4c(c3)CCN4C3CCC(F)(F)CC3)ccc21", "endpoint.value": 7.24}
{"molecule": "Cc1ccc(CN(C)c2ccc(CNC(=O)c3ccc4c(c3)[nH]c(=O)n4C)cn2)nc1", "endpoint.value": 6.68}
